TARGET: UniProt:P00533
Sequence (P00533 whole entry): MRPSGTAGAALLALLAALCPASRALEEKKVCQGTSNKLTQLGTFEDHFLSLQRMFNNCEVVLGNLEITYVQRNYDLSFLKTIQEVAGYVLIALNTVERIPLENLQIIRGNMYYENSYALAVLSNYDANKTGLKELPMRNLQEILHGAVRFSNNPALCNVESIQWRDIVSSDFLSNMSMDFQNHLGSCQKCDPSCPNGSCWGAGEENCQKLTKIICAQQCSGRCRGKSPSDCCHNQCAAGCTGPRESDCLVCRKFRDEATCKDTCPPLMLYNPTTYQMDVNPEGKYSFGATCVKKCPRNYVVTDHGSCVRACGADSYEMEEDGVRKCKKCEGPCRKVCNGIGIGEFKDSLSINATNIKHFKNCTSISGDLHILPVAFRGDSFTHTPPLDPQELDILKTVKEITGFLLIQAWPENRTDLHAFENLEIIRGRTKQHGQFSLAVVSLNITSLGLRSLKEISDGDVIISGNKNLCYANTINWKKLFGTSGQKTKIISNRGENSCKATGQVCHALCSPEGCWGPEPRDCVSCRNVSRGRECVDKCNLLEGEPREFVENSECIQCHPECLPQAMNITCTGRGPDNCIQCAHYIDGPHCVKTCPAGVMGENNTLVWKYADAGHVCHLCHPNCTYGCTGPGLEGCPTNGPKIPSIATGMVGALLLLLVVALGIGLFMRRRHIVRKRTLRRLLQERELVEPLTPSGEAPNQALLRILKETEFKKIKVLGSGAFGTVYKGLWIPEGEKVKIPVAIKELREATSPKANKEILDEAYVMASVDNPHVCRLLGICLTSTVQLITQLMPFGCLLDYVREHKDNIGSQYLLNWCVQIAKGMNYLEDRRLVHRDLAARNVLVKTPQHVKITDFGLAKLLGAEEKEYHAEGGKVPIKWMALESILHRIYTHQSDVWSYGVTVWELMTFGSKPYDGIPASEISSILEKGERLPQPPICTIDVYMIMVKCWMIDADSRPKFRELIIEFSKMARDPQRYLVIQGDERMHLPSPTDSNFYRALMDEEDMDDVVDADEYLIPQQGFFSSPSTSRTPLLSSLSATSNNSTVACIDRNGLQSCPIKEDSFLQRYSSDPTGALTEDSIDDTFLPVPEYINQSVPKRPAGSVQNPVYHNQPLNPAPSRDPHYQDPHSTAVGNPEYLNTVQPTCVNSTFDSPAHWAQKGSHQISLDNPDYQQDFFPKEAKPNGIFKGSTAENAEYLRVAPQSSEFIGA
TEST DESCRIPTION: Human recombinant EGF receptor dimer amount expressed in A431 cells at 10 uM after 10 mins by immunoblotting analysis relative to control
MEASUREMENT SETUP: A-431
Where a SMILES comes first, the peptide text is derived from it.
Reported residual activity values are given for each entry in this list.
Give a bare numeral; the unit % is implied.

molecule="CSCC[C@@H]1NC(=O)[C@H](CCC(N)=O)NC(=O)[C@H](Cc2ccc(O)cc2)NC(=O)[C@H]([C@@H](C)O)NC(=O)[C@H]([C@@H](C)O)NC(=O)[C@@H]2CCCN2C(=O)[C@H](CC(N)=O)NC(=O)[C@H](Cc2ccc(O)cc2)NC(=O)[C@@H](N)CSSC[C@@H](C(=O)O)NC(=O)[C@H](CC(=O)O)NC1=O (HELM PEPTIDE1{C.Y.N.P.T.T.Y.Q.M.D.C}$PEPTIDE1,PEPTIDE1,1:R3-11:R3$$$V2.0)" val=80
molecule=CSCC[C@H]1NC(=O)[C@H](N)CSSC[C@H](C(=O)O)NC(=O)[C@@H](Cc2ccc(O)cc2)NC(=O)[C@@H](CC(N)=O)NC(=O)[C@H]2CCCN2C(=O)[C@@H]([C@H](C)O)NC(=O)[C@@H]([C@H](C)O)NC(=O)[C@@H](Cc2ccc(O)cc2)NC(=O)[C@@H](CCC(N)=O)NC1=O val=68

Okay, now this molecule:
Bench note, UniProt:P00533: entry CSCC[C@@H]1NC(=O)[C@H](CCC(N)=O)NC(=O)[C@H](Cc2ccc(O)cc2)NC(=O)[C@H]([C@@H](C)O)NC(=O)[C@H]([C@@H](C)O)NC(=O)[C@@H]2CCCN2C(=O)[C@H](CC(N)=O)NC(=O)[C@H](Cc2ccc(O)cc2)NC(=O)[C@H](CC(C)C)NC(=O)[C@@H](N)CSSC[C@@H](C(=O)O)NC1=O (HELM PEPTIDE1{C.L.Y.N.P.T.T.Y.Q.M.C}$PEPTIDE1,PEPTIDE1,1:R3-11:R3$$$V2.0) , its residual activity = 80

Source listed as ChEMBL document CHEMBL2146466.
